target: WT RBD (SARS-CoV-2 Wuhan-Hu-1 spike receptor binding domain) (SARS-CoV-2 (Wuhan-Hu-1), UniProt P0DTC2); assay: BLI; conditions: both partners purified
parameter: log10 of Kd (log10 of the value in nM)

binder: C963 (antibody, V domains shown, source: 293-6E cells, transfected, purified (Protein G Sepharose)) VH: QVQLVQSGAEVKKPGSSVRVSCKASGGTFSSFTITWVRQAPGQGLEWMGRIIPNLNIPNYAQRFQGRITITAEKSTSTAYLELSSLRSEDTAVYYCARGVGYSGSGSNWYFDLWGRGTLVTVSS VL: QSVLTQPPSVSGAPGQRVTISCTGSSSNIGAGYDVHWYQQLPGTAPKLLISGHINRPSGVPDRFSGSTSGTSASLAITGLQAEDEADYYCQSYDSSLSDSVFGGGTKLTV
log10 of Kd: -0.19

binder: C978 (antibody, V domains shown, source: 293-6E cells, transfected, purified (Protein G Sepharose)) VH: QVQLVQSGAEVKKPGSSVKVSCKASGATFSNYIISWVRQAPGQGLEWMGRTIPLLDIANYAQKFQGRVTITADKSTRIVYMHLGSLTSEDTAVYYCATGKGYSSSSAAYYFDHWGQGTLVTVSS VL: QSVLTQPPSVSGAPGQRVTISCTGTNSNIGAGYDIHWYQQLPGTAPKLLIYGSNNRPSGVPDRFSGSKSGTSASLAITGLQAEDEADYYCQSYDSSLSGSEVFGGGTKLTVL
log10 of Kd: 0.12

binder: C1034 (antibody, V domains shown, source: 293-6E cells, transfected, purified (Protein G Sepharose)) VH: QLQLQESGPGLVKPSETLSLTCTVSGGSVSSNNHYWGWIRQPPGKGLEWIGSISSSGSTHHNPSLRSRVTISVDTSKNHFSLKLNSVTATDTAVYYCARVDSSGWYTGDVFDVWGQGTMVTVSS VL: DIQMTQSPSSLSASVGDRVTITCRASQTINNYLNWYQQKPGKPPKLLIYAAFSLHSGVPSRFSGSRSGTDFTLTISSLQPEDFATYYCQHSYSTMCSFGQGTKLEIK
log10 of Kd: 0.30

binder: B1002 (antibody, V domains shown, source: 293-6E cells, transfected, purified (Protein G Sepharose)) VH: QVQLVQSGAEVKKPGSSVKVTCRASGGTFSNLAISWVRQAPGQGLEWMGSIIPMFTISNYAQKLKGRVTITADKSTSTAYMELSSLRSGDTAVYFCASLGSNITVVRGAPITDHHFHYWGQGTLVTVSS VL: QSALTQPASVSGSPGQSVTISCTGTSSDVGTYNLVSWYQQHPGKAPKLMIYEVSKRPSGVSNRFSGSKSGNTASLTISGLQAEDEADYYCCSYAASSTTHWVFGGGTKLAV
log10 of Kd: -0.14

binder: C986 (antibody, V domains shown, source: 293-6E cells, transfected, purified (Protein G Sepharose)) VH: EVQLVQSGAEVKKPGETLKISCKGSGDSFSNYWIGWVRQSPGKGLEWMAIVYPGDSDARYSPSFQGQVTISADKSVTTAYLKWSSLKASDTAIYYCVRGLPVDWYFDLWGRGTLVTVSS VL: QSVLTQPPSVSGAPEQRVTISCTGSSSNIGAGHDVHWYQQLPGTAPKLLIYNNNNRPSGVPDRFSGSKSGASASLAISGLQAEDEAEYYCQSYDKSLSVLYVLGTGTKVTV
log10 of Kd: -0.33

binder: C3054 (antibody, V domains shown, source: 293-6E cells, transfected, purified (Protein G Sepharose)) VH: EVQLVESGGGLGQPGGSLRLSCVASGFSFSTYSMNWVRQAPGKGLEWLSYINAGSTTIYSADSVTGRFSISRDNAKNSLYLHMNSLRADDTAVYYCARGVPFDYWGQGTLVTVSS VL: DIVMTQTPLSLPVTPGEPASISCRSSRSLLDSDDADTYLDWYLQKPGQSPQLLIYTLSYRASGVPDRFSGSGSGTDFTLKISRVEAEDVGVYYCMQRIQFPWTFGQGTKVEIK
log10 of Kd: 0.40

binder: C3111 (antibody, V domains shown, source: 293-6E cells, transfected, purified (Protein G Sepharose)) VH: EVQLVESGGRVVRPGESLRLSCAASGFNFNDYGMSWVRQVPGKGLEWVSGINWNGAISGYVDSVKGRFIISRDNAKNSLYLQMNSLRAEDTALYHCARAYCGDECYSLLVRGDALDIWGQGTMVTVSS VL: QSVLTQPPSVSAAPGQTVTISCSGSSSNIGMNDVSWYQHLPGTAPKLLIYDSHKRPSGIPDRFSGSNSGTSATLGITGLQTGDEAHYYCGAWDSSLSAVVFGGGTMLAVL
log10 of Kd: -0.63

binder: C080 (antibody, V domains shown, source: 293-6E cells, transfected, purified (Protein G Sepharose)) VH: EVQLVQSGAEVKKPGESLNISCKASGYSFTIYWIAWVRQLPGKGLEWMGIIYPGDSDTRYSPSFQGQVTISADKSISTAYLQWRSLKASDSAVYYCARGVAVDWYFDLWGRGTLVTVSS VL: QSVLTQPPSVSGAPGQRVTISCAGSSSNIGAGFDVYWYQQLPGTAPKLLIYGNNNRPSGVPDRFSGSKSGTSASLAITGLQAEDEADYYCQSSGSVLSDLYVFGTGTKVTVL
log10 of Kd: -0.54

binder: C2588 (antibody, V domains shown, source: 293-6E cells, transfected, purified (Protein G Sepharose)) VH: QVQLVQSGAEVKKPGSSVKVSCKASGDTFNIYAINWVRQAPGQGLEWMGRIIPRFGMANYAQKFQGRVTMTADKSTSTAYMDLISLKSEDTAVYYCATSAYLSGSGHYFDYWGQGTLVTVSS VL: EIVLTQSPATLSLSPGERATLSCRASQSVGGSFLAWYQQKPGQAPRLLIYGASSRATGIPDRFSGSGSGTDFTLTISRLEPEDFAVYFCQQYASSRTFGQGTKVEIK
log10 of Kd: 0.17

binder: B2064 (antibody, V domains shown, source: 293-6E cells, transfected, purified (Protein G Sepharose)) VH: QVQLVQSGAEVKKPGSSVNVSCKASGGTLNIYTFSWVRQAPGQGLEWVGTIVPLVGKANYPHKFQGRVTITADKSTSTVNMELSSLRSEDTAVYYCASEVLDNLRDGYNFWGQGTLVTVSS VL: DIQMTQSPSSLSASVGDRVTITCRASQSVSSYLNWYQQKPGKAPKLLIYAVSSLQSGVPSRFSGSGSGTDFTLTISSLQPEDFATYYCQQTYNTLTFGGGTKVEIK
log10 of Kd: -0.06
